The molecules listed here are annotated with their TGI.
- System: MALME-3M melanoma
- test_details: NCI tumour cell line growth inhibition, 48 h
Write down the numeric answer in µM and omit the unit.

Example entries begin here.
C[C@@H](CC(O)C1OC1(C)C)[C@@H]1CC[C@]2(C)C3=CCC4C(C)(C)C(O)CC[C@]4(C)C3CCC12C (stereo not given in full); 31.1
C/C=C/C1=CN2C(=O)c3cc(OC4OC(C)C(NC)C(C)(O)C4O)c(C)cc3N=C[C@@H]2C1 (stereo not given in full); 0.0396

API: the following record is the query input.
Readout TGI for CC1(c2ccccc2)CCN(C2CC2)CO1 (stereo not given) , test system MALME-3M melanoma, was 34.4

---

- Tested on: SNB-19 CNS
- test_details: NCI tumour cell line growth inhibition, 48 h
Recorded measurements of TGI, one per entry

These recorded examples may help you get a feel for the data.
COc1cc2c(cc1O)CC[C@@H]1[C@@H]2CC[C@]2(C)[C@@H](OCCCN(C)C)CC[C@@H]12; 1.06 µM
CCN(Cc1ccccn1)c1ccc(CO)c(Cl)c1; > 100 µM
O=C(/C=C\Sc1ccccn1)c1cccc(Br)c1; > 100 µM
COc1ccc(-c2nc3c(-c4ccccc4)nc(-c4ccccc4)cn3c2-c2ccc(OC)cc2)cc1; > 100 µM

# evaluate next
Note to self: TGI recorded for `O=C(Nc1sccc1S(=O)(=O)c1ccc(Cl)cc1)c1ccc(Cl)cc1` was > 100 µM

---

- Test system: CCRF-CEM leukemia
- test_details: NCI tumour cell line growth inhibition, 48 h
Items are presented alongside their recorded TGI.

Nc1cc(N)c2nc(-c3ccccc3)c(NCCc3ccc(Cl)c(Cl)c3)nc2c1; 12.3 µM
O=S(=O)(SCCCCSS(=O)(=O)c1ccc(Cl)cc1)c1ccc(Cl)cc1; 4.5 µM
COc1cc(/C=C2\CCC/C(=C\c3ccc(OC(=O)CCCCC4CCSS4)c(OC)c3)C2=O)ccc1OC(=O)CCCCC1CCSS1 (centres undefined); > 100 µM
CC1CCC2(OC1)OC1CC3C4CCC5CC(O)CCC5(C)C4CC(=O)OC3(C)C1C2C (centres undefined); > 100 µM
O=C1c2ccccc2C(=O)N1CCCC(=O)n1cc(F)c(=O)[nH]c1=O; > 100 µM

According to the records, this molecule `CC(C)OP(=O)(OC(C)C)c1ncc(-c2ccc(C(F)(F)F)cc2)c(NC2CCCCCC2)n1` displays TGI of > 10 µM

Reported TGI ( `COc1cc([C@@H]2c3cc4c(c(O[C@@H]5O[C@H]6CO[C@@H](C)O[C@H]6[C@H](O)[C@@H]5O)c3C[C@H]3COC(=O)[C@@H]32)OCO4)cc(OC)c1O` ) = > 100 µM

Record summary for `CN(C)c1ccc(/C=C(\NC(=O)c2ccccc2)C(=O)Nc2ccccc2C(=O)NCc2ccccc2)cc1` : reported TGI = > 100 µM

Form field TGI, entry `O=C(O)CNCP(=O)(O)O` : > 100 µM

Looking up C=CC(C)c1cccc(C=O)c1O (centres undefined) , I found its TGI recorded as > 100 µM

---

- Test system: SF-268 CNS
- test_details: NCI tumour cell line growth inhibition, 48 h
experimental_endpoint: TGI

Examples from the recorded data:
COc1ccc(Nc2nc3cc(C(F)(F)F)ccc3n3cccc23)cc1OC; > 100 µM
CN(C)CCCNC(=O)c1cccc2ccccc12; > 100 µM

Below: the item to evaluate.
TGI for `CC(=O)/C(=C/n1ccc(=O)[nH]c1=S)C(=O)Nc1ccccc1C` is > 100 µM

---

Quick reference: TGI of the listed items.
- System: NCI/ADR-RES ovarian
- test_details: NCI tumour cell line growth inhibition, 48 h

Kindly note the recorded TGI for `C[C@@H](CO)C1=C(O)c2ccc3c(c2C(=O)C1=O)CCCC3(C)C` , which is > 100 µM

---

TGI reference
- Test system: 786-0 renal
- test_details: NCI tumour cell line growth inhibition, 48 h
Where a SMILES comes first, the peptide text is derived from it. [ ]: non-standard residue; d: D form. The star is where a group is joined. ξ: configuration not given here. ξD = NC(CC(=O)O)C(=O)O; Boc = CC(C)(C)OC(=O)*; Aib = CC(C)(N)C(=O)O; OtBu = CC(C)(C)O*

The following compounds have reported results that may help.
C(CCCCc1nnc(N2CCOCC2)o1)CCCc1nnc(N2CCOCC2)o1; > 100 µM
S=c1ssnc1-c1ccccn1; > 25.4 µM
COC(=O)C(C)(C)NC(=O)C(C)(C)NC(=O)C(CC(=O)OC(C)(C)C)NC(=O)OC(C)(C)C (stereo not drawn) (Boc-[ξD](OtBu)-[Aib]-[Aib]-OMe); > 100 µM
Cc1n[nH]c(=S)n1/N=C/c1ccc(-c2ccc(Cl)cc2)o1; > 100 µM
CC(CO)CCNc1ncnc2c1ncn2CCC#N (stereo not drawn); > 100 µM
CN1C[C@@H](c2ccc(Cl)cc2)[C@]2(NC(=S)N(c3ccc(F)c(Cl)c3)C2=O)[C@@]12C(=O)NC1C=CC(Cl)=C[C@H]12 (stereo partly drawn); 4.82 µM

The reported value for N#CC1C(=O)C(=O)N(c2ccccc2)C1=O (stereo not drawn) in terms of TGI is > 100 µM

TGI reported for this compound CC(=O)OC(C)(C)C1O[C@@]23OC1C[C@@H](C)[C@@H]2[C@@]1(C)CC[C@@]24C[C@@]25CC[C@H](OC2OCC(O)C(O)C2O)C(C)(C)[C@@H]5CCC4[C@]1(C)[C@H]3O (stereo partly drawn) : 18.9 µM

---

- Tested on: HOP-92 NSCLC
- test_details: NCI tumour cell line growth inhibition, 48 h
experimental_endpoint: TGI

O=C1NC(N/N=C/c2cccs2)=N/C1=C\c1ccco1; > 100 µM
COc1ccc(-c2nc3c(-c4ccccc4)nc(-c4ccccc4)cn3c2-c2ccc(OC)cc2)cc1; > 100 µM
COC(=O)c1c(C)c2n(c1C)C(=O)C(c1ccccc1)=C2; > 100 µM
COc1nc2c(nc(N)n2C2OC(CO)C(O)C(O)C2O)c(=O)[nH]1 (stereo unspecified); > 100 µM
CC(C)OP(=O)(OC(C)C)c1ncc(-c2ccc(C(F)(F)F)cc2)c(NC2CCCCCC2)n1; > 10 µM
Nc1ccc(C(=O)N/C(=C\C=C\c2ccco2)c2nc3c4c(ccc3[nH]2)C(=O)c2ccccc2C4=O)cc1; > 100 µM
Cc1ccc(C(=O)CC(O)(C(F)(F)F)C(F)(F)F)cc1[N+](=O)[O-]; 22.3 µM
OCCCCOC(c1ccccc1)(c1ccccc1)c1ccccc1; > 100 µM
C=Cc1c(C)c(O)cc2c1-c1ccc(O)c(C)c1CC2; 54.5 µM
C[C@]12CCC(=O)C[C@H]1CCC(O)[C@@H]2Br (stereo partly specified); > 100 µM

Could you now look at the following compound, please?
Documented TGI of `CC12c3c4cccc3Oc3cc(N)cc(c31)Oc1cc(N)cc(c12)O4` : 74.5 µM

---

Measured TGI accompanies every entry in the list below.
- System: A549 NSCLC
- test_details: NCI tumour cell line growth inhibition, 48 h

Recorded TGI (compound `C/C(=N\[N+](C)(C)C)c1ccc(C)c(C)c1` ): > 100 µM

---

GI50 values by entry
- System: SNB-19 CNS
- test_details: NCI tumour cell line growth inhibition, 48 h

Before answering, review these 5 worked examples.
Cc1ccc(C2C3Cc4ccccc4C3=NN2c2ccc(S(=O)(=O)NC(=O)NC3CCCCC3)cc2)cc1 (centres undefined); 21.3 µM
CCOC(=O)CCC(NC(=O)c1ccc(Sc2nc3cc(N)cc(N)c3nc2-c2ccccc2)cc1)C(=O)OCC (centres undefined); 4.77 µM
ClC(Cl)c1nc(-c2ccccc2)n2nc(-c3ccccc3)cc2n1; 1.55 µM
NC(=O)c1c(Br)n(C2OC(CO)C(O)C2O)c2ncnc(N)c12 (centres undefined); 5.16 µM
COc1ccc(/C=C/C(=O)c2ccc(Cl)cc2Cl)cc1; 21.5 µM

Value of GI50 reported for the compound `Cc1ccc(-c2nc3nc(-c4ccc(Br)cc4)nc(N4CCCNCC4)c3o2)cc1` is 14.1 µM

Please fill in: GI50 reported for `CC(=O)Nc1c(Br)cc2c(c1Br)Cc1cc(Br)ccc1-2` = 12.8 µM

GI50 reported for this compound `O=C1CCC/C=C\C[C@H]2C=CC(=O)/C2=C/C[C@H](CCc2cccc(C(F)(F)F)c2)O1` : 2.22 µM

get_value(item= `O=C(/C=C\Sc1ccccn1)c1cccc(Br)c1` , readout=GI50) returns 39.1 µM

---

- Tested on: HCT-15 colon
- test_details: NCI tumour cell line growth inhibition, 48 h; in the data active = GI50 below about 0.43 µM; inactive = the rest
Return exactly one item of active, inactive

Example entries and their recorded answers appear below.
O=C(Nc1ccc(F)cc1F)c1cc(F)ccc1O; inactive
C=CC(C)c1cccc(C=O)c1O (centres undefined); inactive
O=C1CCC/C=C\C[C@H]2C=CC(=O)/C2=C/C[C@H](CCc2cccc(C(F)(F)F)c2)O1; inactive

[Q] Given `COc1ccc2c(c1)c1c(C)c3cnccc3c(C)c1n2CCCN` , state the outcome it received in this test.
[A] active

[Q] What did the test return for `COc1ccc(OC)c(/C=C/C(=O)N/N=C/c2ccccc2)c1` ?
[A] inactive
